// values below are reported growth
- Test system: SK-OV-3 ovarian
- measurement description: NCI-60 one-dose screen, 48 h (100 = growth as untreated, 0 = no growth, -100 = all killed)
- experimental setup: 10 µM
The panel holds about 83,000 compounds, 20% with a hit somewhere; the sample as a whole holds those more often. Active and inactive are the calls of the source. The calls were made as follows: active = growth percent below 10; inactive = the rest.

Past entries and their recorded results:
COc1cc(/C=C/[N+](=O)[O-])cc(OC)c1OC
89.9% (inactive)
CC[C@@]1(O)C[C@H](OC2CC(N(C)C)C(O)C(C)O2)c2c(cc3c(c2O)C(=O)c2c(O)ccc(O)c2C3=O)[C@H]1C(=O)OC (some centres not stated)
-68.9% (active)
COc1cc(/C=C/[N+](=O)[O-])cc(Br)c1OC
94.7% (inactive)
Oc1c(Cl)cc(Cl)c2ccccc12.[Cu+2]
87.2% (inactive)
O=[N+]([O-])c1ccc(Br)c([N+](=O)[O-])c1
113% (inactive)

What does the record list as growth for `CC(C)(C)OOC(=O)/C=C\C(=O)OOC(C)(C)C` ?
108% (inactive)

Ok, now `O=C1C(=O)c2ccccc2-c2ccccc21`
93.7% (inactive)

Ok, now `CN(C)CC1(N)C(=O)NC(=O)NC1=O`
98.2% (inactive)

Ok, now CC(Cc1ccc2c(c1)OCO2)NN (configuration not stated)
84.8% (inactive)

---

- Tested on: TK-10 renal
- measurement description: NCI-60 one-dose screen, 48 h
- experimental setup: 10 µM unless noted
Compounds without any hit were thinned out: in the full panel of roughly 83,000, 20% have a hit. The source made the active and inactive calls. The calls were made as follows: active = growth percent below 10; inactive = the rest.
Tick one outcome: YES = active, NO = inactive

[O-][n+]1ccccc1S
NO

In this assay, the call recorded for `C[C@]12CC[C@H]3[C@@H](CCC4=CC(=O)CC[C@@H]43)[C@@H]1CC[C@@H]2OC(=O)N(CCCl)N=O` was what?
NO

Ok, now `[Cl][Hg][c]1ccc2ccccc2c1`
YES

Ok, now `O=C1C=Cc2ccccc2C1=O`
NO

Ok, now `CC(=O)Nc1c2sscc-2n(C)c1=O`
YES

Ok, now `O=[N+]([O-])c1ccc(N(CCO)CCO)c2c1no[n+]2[O-]`
YES

---

- Test system: A498 renal
- measurement description: NCI-60 one-dose screen, 48 h (100 = growth as untreated, 0 = no growth, -100 = all killed)
- experimental setup: 10 µM
About 83,000 compounds went through this panel and 20% of them were active in at least one assay; those are over-represented in the sample as a whole.
// values below are reported growth
The answer is to be given in %; state only the numeric part.

Past entries and their recorded results:
COc1cc([N+](=O)[O-])c2ncccc2c1[N+](=O)[O-]
122
CS(=N)(=O)CCC(N)C(=O)O (configuration not stated)
129

// below: growth requested for another compound
What does the record list as growth for CC12OOC(c3ccccc31)c1c2ccc2ccccc12 (configuration not stated) ?
133

---

- Tested on: HCT-15 colon
- measurement description: NCI-60 one-dose screen, 48 h
- experimental setup: 10 µM
- Protocol: Growth inhibition of the HCT-15 human tumor cell line is measured as a screen for anti-cancer activity. Cells are grown in 96 well plates and exposed to the test compound for 48 hours. Compounds are tested at a single concentration, which is 10^-5 M for most compounds. The reported endpoint is percent growth (GI% or GIPRCNT), where numbers from 0 - 100% represent growth inhibition, and numbers from -100% - 0 represent cell death. For example, a value of 40 represents 60% growth inhibition. […]
About 83,000 compounds went through this panel and 20% of them were active in at least one assay; those are over-represented in the sample as a whole. Activity calls are given as the source filed them. The calls were made as follows: active = growth percent below 10; inactive = the rest.
Tick one outcome: class 1 = active, class 0 = inactive

Previously resolved entries follow.
CC(Cc1ccc2c(c1)OCO2)NN (centres undefined)
class 0
COC12c3c(C)cc(O)c4c(=O)occ(c34)C(=O)C1C13COC(=O)c4c(O)cc(C)c(c41)C(=O)C2C3OC(C)=O (centres undefined)
class 0

In this assay, the call recorded for `O=[N+]([O-])c1ccc(N2CCOCC2)c2c1no[n+]2[O-]` was what?
class 1

Ok, now `COS(=O)(=O)c1ccccc1`
class 0

Ok, now `C[CH2][Hg][S]c1ccccc1C(=O)O`
class 1

Ok, now CC[C@@H](C)[C@@H]1NC(=O)C(NC(=O)C(CC(C)C)N(C)C(=O)C2CCCN2C(=O)C(C)O)C(C)OC(=O)C(Cc2ccc(OC)cc2)N(C)C(=O)C2CCCN2C(=O)C(CC(C)C)NC(=O)C(C)C(=O)C(C(C)C)OC(=O)C[C@H]1O (some centres undefined)
class 1

Ok, now CC12OOC(c3ccccc31)c1c2ccc2ccccc12 (centres undefined)
class 1

Ok, now `CC(C)c1cc([N+](=O)[O-])cc([N+](=O)[O-])c1O`
class 0

Ok, now `C[C@@H]1C[C@@H]([C@H](O)CC2CC(=O)NC(=O)C2)C(=O)[C@@H](C)C1`
class 1

Data origin: PubChem BioAssay (NCI)
